Quantity Name: melting point

**Query** Please report the recorded melting point for CCOC(=O)c1cccc(-n2cnc3cc(-c4ccoc4)ccc32)c1 .
**Result** 87 to 89 °C

**Query** Please report the recorded melting point for CCCOC(=O)c1ccc2c(c1)ncn2-c1cccc(N2CCCC2)c1 .
**Result** 170 to 172 °C

**Query** Please report the recorded melting point for CCOC(=O)c1ccc2c(c1)ncn2-c1cccc(N2CCN(CCO)CC2)c1.Cl .
**Result** 233 to 236 °C

**Query** Please report the recorded melting point for CCCON=C(CN1CCN(c2cccc(-n3cnc4cc(C(C)=O)ccc43)c2)CC1)OC .
**Result** 120 to 122 °C

**Query** Please report the recorded melting point for CC(=NOC(C)C)c1ccc2c(c1)ncn2-c1cccc(C2CCCN(C)C2)c1.Cl (stereo not shown) .
**Result** 48 to 55 °C

**Query** Please report the recorded melting point for CCON=C(C)c1ccc2c(c1)ncn2-c1cccc(N2CCCCC2)c1 .
**Result** 88 to 89 °C

**Query** Please report the recorded melting point for CN1CCN(c2cccc(-n3cnc4cc(C=NO)ccc43)c2)CC1 .
**Result** 224 to 227 °C

**Query** Please report the recorded melting point for CN1CCN(c2cccc(-n3cnc4cc(-c5ccoc5)ccc43)c2)CC1 .
**Result** 129 to 130 °C

**Query** Please report the recorded melting point for CC(C)ON=Cc1ccc2c(c1)ncn2-c1cccc(N2CCCCC2)c1 .
**Result** 127 to 128 °C

**Query** Please report the recorded melting point for COC(=O)C=CN1CCN(c2cccc(-n3cnc4cc(-c5ccoc5)ccc43)c2)CC1 .
**Result** 131 to 133 °C

----------
Provide the reported melting point of each item.

**Query** Please report the recorded melting point for CN1CCCC(c2cccc(-n3cnc4cc(C(C)(C)C)ccc43)c2)C1.Cl (stereo not shown) .
**Result** 200 °C

**Query** Please report the recorded melting point for CN1CCN(c2cccc(-n3cnc4cc(-c5ccccc5)ccc43)c2)CC1 .
**Result** 131 to 132 °C

**Query** Please report the recorded melting point for CCOC(=O)c1cccc(-n2cnc3cc(C4CCOC4)ccc32)c1.Cl (stereo not shown) .
**Result** 168 to 171 °C

**Query** Please report the recorded melting point for COC(=O)C(C)(C)ON=Cc1ccc2c(c1)ncn2-c1cccc(N2CCN(C)CC2)c1.Cl .
**Result** 199 to 201 °C

**Query** Please report the recorded melting point for CN1CCCC(c2cccc(-n3cnc4cc(C(=O)OCC5CC5)ccc43)c2)C1 (stereo not shown) .
**Result** 111 to 113 °C

**Query** Please report the recorded melting point for COC(=O)c1cccc(-n2cnc3cc(-c4ccno4)ccc32)c1 .
**Result** 190 to 191 °C

**Query** Please report the recorded melting point for CCOC(=O)Cc1ccc2c(c1)ncn2-c1cccc(N2CCN(C)CC2)c1.Cl .
**Result** 180 to 182 °C

**Query** Please report the recorded melting point for COC(=O)Cc1ccc2c(c1)ncn2-c1cccc(N2CCN(C)CC2)c1.Cl .
**Result** 140 to 142 °C

**Query** Please report the recorded melting point for CCOC(CN1CCN(c2cccc(-n3cnc4cc(C(C)=O)ccc43)c2)CC1)=NO .
**Result** 154 to 156 °C

**Query** Please report the recorded melting point for CN1CCCC(c2cccc(-n3cnc4cc(-c5nc(C6CC6)no5)ccc43)c2)C1.Cl (stereo not shown) .
**Result** 184 to 190 °C

----------
- Tested System: benzodiazepine receptor sites (GABAA receptor complex)
- Assay Notes: In vitro inhibition of 3H-flunitrazepam (3H-FNM) binding, cerebral cortex membranes
- Test Context: inhibition of specific binding of 3H-FNM (1 nM), rat cerebral cortex membranes, 40 min at 2° C.
Quantity Name: IC50

**Query** Please report the recorded IC50 for COC(=O)CON=C(C)c1ccc2c(c1)ncn2-c1cccc(N2CCN(CCO)CC2)c1 [compound 5c1] .
**Result** 19 nM

**Query** Please report the recorded IC50 for CCON=C(C)c1ccc2c(c1)ncn2-c1cccc(C2CCCN(C)C2)c1.Cl (centres unmarked) [compound 3f7, hydrochloride] .
**Result** 18 nM

**Query** Please report the recorded IC50 for CN1CCCC(c2cccc(-n3cnc4cc(C(=O)OCc5cccnc5)ccc43)c2)C1 (centres unmarked) [compound 4h] .
**Result** 80 nM

**Query** Please report the recorded IC50 for OCCN1CCN(c2cccc(-n3cnc4cc(-c5ccoc5)ccc43)c2)CC1 [compound 3i3] .
**Result** 5 nM

**Query** Please report the recorded IC50 for CCOC(=O)c1cccc(-n2cnc3cc(-c4ccno4)ccc32)c1 [compound 6a2] .
**Result** 3 nM

**Query** Please report the recorded IC50 for COC(=O)Cc1ccc2c(c1)ncn2-c1cccc(N2CCN(C)CC2)c1.Cl [compound 4l1, hydrochloride] .
**Result** 25 nM

**Query** Please report the recorded IC50 for N#Cc1ccc2c(c1)ncn2-c1cccc(N2CCCC2)c1 [compound 3a2] .
**Result** 41 nM

**Query** Please report the recorded IC50 for CCOC(=O)C(=CN1CCN(c2cccc(-n3cnc4cc(-c5ccoc5)ccc43)c2)CC1)C(=O)OCC [compound 6c6] .
**Result** 7 nM

**Query** Please report the recorded IC50 for CN1CCCC(c2cccc(-n3cnc4cc(C=NO)ccc43)c2)C1 (centres unmarked) [compound 3b4] .
**Result** 4 nM

**Query** Please report the recorded IC50 for CCOC(=O)c1ccc2c(c1)ncn2-c1cccc(N2CCN(CC(=O)OC)CC2)c1.Cl [compound 4a5, hydrochloride] .
**Result** 50 nM

**Query** Please report the recorded IC50 for O=C(OCc1ccccn1)c1cccc(-n2cnc3cc(-c4ccccc4)ccc32)c1 [compound 6b3] .
**Result** 8 nM

----------
Provide the reported melting point of each item.

**Query** Please report the recorded melting point for COC(=O)CN1CCN(c2cccc(-n3cnc4cc(-c5ccoc5)ccc43)c2)CC1 .
**Result** 124 to 125 °C

**Query** Please report the recorded melting point for CN1CCC(OC(=O)c2cccc(-n3cnc4cc(-c5ccccc5)ccc43)c2)CC1.Cl .
**Result** 187 to 188 °C

**Query** Please report the recorded melting point for CCON=C(CC1CCN(c2cccc(-n3cnc4cc(C(C)=O)ccc43)c2)CC1)OCC [compound 5d2] .
**Result** 119 to 120 °C

**Query** Please report the recorded melting point for CCOC(=O)c1ccc2c(c1)ncn2-c1cccc(N2CCN(C)CC2)c1 .
**Result** 86 to 87 °C

**Query** Please report the recorded melting point for CC(=O)c1ccc2c(c1)ncn2-c1cccc(N2CCN(C(C)=NOC(C)C)CC2)c1.Cl .
**Result** 160 to 163 °C

**Query** Please report the recorded melting point for N#Cc1ccc2c(c1)ncn2-c1cccc(N2CCCCC2)c1 .
**Result** 106 to 108 °C

**Query** Please report the recorded melting point for CC(=O)c1ccc2c(c1)ncn2-c1cccc(N2CCN(C(C)=NO)CC2)c1 .
**Result** 240 to 241 °C

**Query** Please report the recorded melting point for CC(=O)c1ccc2c(c1)ncn2-c1cccc(C(=NOC(C)C)OCc2ccccn2)c1 [compound 5a3] .
**Result** 104 to 106 °C

**Query** Please report the recorded melting point for CN1CCCC(c2cccc(-n3cnc4cc(-c5ccoc5)ccc43)c2)C1 (stereo not drawn) .
**Result** 96 to 97 °C

----------
Provide the reported melting point of each item.

**Query** Please report the recorded melting point for COC(=O)c1ccc2c(c1)ncn2-c1cccc(C2CN(C(C)=O)CCN2)c1 (centres unmarked) .
**Result** 189 to 191 °C

**Query** Please report the recorded melting point for CCOC(=O)c1cccc(-n2cnc3cc(-c4ccno4)ccc32)c1 .
**Result** 156 to 157 °C

**Query** Please report the recorded melting point for CCOC(=O)CN1CCN(c2cccc(-n3cnc4cc(C(=O)OCC)ccc43)c2)CC1.Cl .
**Result** 196 to 200 °C

**Query** Please report the recorded melting point for COC(=O)CON=C(C)N1CCN(c2cccc(-n3cnc4cc(C(C)=O)ccc43)c2)CC1 .
**Result** 137 to 139 °C

**Query** Please report the recorded melting point for COC(=O)C(C)(C)ON=C(C)N1CCN(c2cccc(-n3cnc4cc(C(C)=O)ccc43)c2)CC1 .
**Result** 119 to 120 °C

----------
Quantity Name: melting point

**Query** Please report the recorded melting point for CN1CCCC(c2cccc(-n3cnc4cc(-c5ccccc5)ccc43)c2)C1 (centres unmarked) .
**Result** 42 to 44 °C

**Query** Please report the recorded melting point for CON=Cc1ccc2c(c1)ncn2-c1cccc(N2CCCCC2)c1 .
**Result** 107 to 108 °C

**Query** Please report the recorded melting point for CC(=O)c1ccc2c(c1)ncn2-c1cccc(C(=NOC(C)C)OC2CCN(C)CC2)c1 .
**Result** 106 to 107 °C

**Query** Please report the recorded melting point for CCOC(=O)C(=CN1CCN(c2cccc(-n3cnc4cc(C(C)=O)ccc43)c2)CC1)C(=NOC(C)C)OCC .
**Result** 128 to 129 °C

**Query** Please report the recorded melting point for CCOC(=O)CN1CCN(c2cccc(-n3cnc4cc(-c5ccoc5)ccc43)c2)CC1 .
**Result** 110 to 112 °C

**Query** Please report the recorded melting point for COC(=O)C=Cc1ccc2c(c1)ncn2-c1cccc(N2CCN(C)CC2)c1 .
**Result** 138 to 140 °C

**Query** Please report the recorded melting point for CCOC(=O)c1cccc(-n2cnc3cc(-c4ccccc4)ccc32)c1 .
**Result** 122 to 123 °C

**Query** Please report the recorded melting point for CC(C)OC(=O)c1ccc2c(c1)ncn2-c1cccc(N2CCCCC2)c1 .
**Result** 160 to 161 °C

**Query** Please report the recorded melting point for CC(C)(C)OC(=O)N1CCN(c2cccc(-n3cnc4cc(-c5ccoc5)ccc43)c2)CC1 .
**Result** 162 to 164 °C

**Query** Please report the recorded melting point for COC(=O)CON=C(C)c1ccc2c(c1)ncn2-c1cccc(N2CCN(CCO)CC2)c1 [compound 5c1] .
**Result** 117 to 119 °C

**Query** Please report the recorded melting point for ON=Cc1ccc2c(c1)ncn2-c1cccc(N2CCCC2)c1 .
**Result** 242 to 244 °C

**Query** Please report the recorded melting point for CN1CCN(c2cccc(-n3cnc4cc(C#N)ccc43)c2)CC1 .
**Result** 177 to 179 °C

**Query** Please report the recorded melting point for CCOC(=O)c1ccc2c(c1)ncn2-c1cccc(N2CCN(CC(=O)OC)CC2)c1.Cl [compound 4a5] .
**Result** 185 to 186 °C

**Query** Please report the recorded melting point for O=C(OCc1ccccn1)c1cccc(-n2cnc3cc(-c4ccccc4)ccc32)c1 [compound 6b3] .
**Result** 149 to 150 °C
